Parameter: melting point. Scope: all listed entries.

Known melting point results, listed for orientation:
Compound: NS(=O)(=O)c1ccc(Cl)s1 [compound 30, 5-Chloro-thiophene-2-sulfonic acid amide]
Result: 109 to 110 °C
//
Compound: CCN/C(=N\S(=O)(=O)/C=C/c1ccccc1)N1CC(CC)C=N1 (stereo not drawn) [compound 29]
Result: 91 to 92 °C
//
Compound: NS(=O)(=O)c1ccc(NC(=O)C(F)(F)F)c(Br)c1 [compound 14]
Result: 171 to 172 °C
//
Compound: CCNC(=S)N1CC(C)(C)C=N1 [compound 5]
Result: 66 to 67 °C
//
Compound: CC1(C)C=NN(C(N)=S)C1 [compound 31]
Result: 149 to 150 °C
//
Compound: O=C(Nc1ccccc1Br)C(F)(F)F [compound 12]
Result: 58 to 59 °C
//
Compound: O=C(Nc1ccc(S(=O)(=O)Cl)cc1Br)C(F)(F)F [compound 13]
Result: 60 to 61 °C
//
Compound: CCNC(=S)N1CC2(C=N1)CCCC2 [compound 1]
Result: 120 to 121 °C
//
Compound: CC1(C)C=NN(/C(N)=N/S(=O)(=O)c2ccc(Cl)s2)C1 [compound 33]
Result: 164 to 165 °C
//
Compound: CCN/C(=N\S(=O)(=O)c1ccccc1Cl)N1CCC(CC)=N1
Result: 87 to 88 °C

Qu. Please look up its melting point: CCN/C(=N\S(=O)(=O)c1ccc(N)cc1)N1CC2(C=N1)CCCC2 [compound 4]
Ans. 141 to 142 °C

Qu. Please look up its melting point: NS(=O)(=O)c1c(Cl)nc2sccn12 [compound 21]
Ans. 184 to 185 °C
